System: NCI-H226 cells
TEST_DESCRIPTION: Cell growth assay (CellTiter-Glo)
Assay type: cell-based, human
STUDY_CONDITIONS: Homo sapiens, NCI-H226, 168 h, 7 days treatment, CellTiter-Glo luminescence, read-out: H226 CTG IC50
pIC50: −log10 of the molar value.
Reported pIC50 values are given for each entry in this list.

Example results:
CNS(=O)(=O)CCc1cc(-c2ccc(C(F)(F)F)cc2)cc2c1cnn2C ... > 7.00
Cn1cc2cc(Oc3ccc(C(F)(F)F)cc3)cc([C@@H]3C[C@H]3C(=O)NC3(C#N)CC3)c2n1 (single isomer, unassigned) ... > 7.00
Cn1ncc2c(C3C[C@H]3C(=O)O)cc(OCc3ccc(C(F)(F)F)cc3)cc21 (mixture of isomers) ... 4.52 to 6.00

[Q] Which pIC50 value belongs to Cn1cc2cc(Oc3ccc(C(F)(F)F)c(F)c3)cc([C@@H]3C[C@H]3C(=O)N3CC(O)C3)c2n1 (single isomer, unassigned) ?
[A] > 7.00

[Q] Which pIC50 value belongs to CNC(=O)[C@@H]1CC1c1cc(Oc2ccc(C(F)(F)F)cc2)cc2cn(C)nc12 (mixture of isomers) ?
[A] > 7.00
